test system: HEK293; assay: maximal inhibition of ZIKV NS1 production (% inhibition); higher = stronger antiviral effect
Give Met when the value for maximal inhibition is at least 90. Give Not met when it is less.

query: Form field: maximal inhibition at least 90? Entry: Nc1ncn([C@@H]2O[C@H](CO)[C@@H](O)[C@H]2O)c(=O)n1
result: Not met

query: Same question for O=C(Cc1ccc(-c2ccc(OCCN3CCOCC3)cc2)cn1)NCc1ccccc1 please.
result: Not met

query: Same question for COc1cccc2c(NCc3ccccc3)nc(-n3c(N)nc4ccccc43)nc12 please.
result: Met

query: Same question for COc1cc(NCc2ccc3nc(N)nc(N)c3c2C)cc(OC)c1OC please.
result: Met

query: Same question for C[C@@H]1C[C@@H]([C@H](O)CC2CC(=O)NC(=O)C2)C(=O)[C@@H](C)C1 please.
result: Met

query: Same question for CS(=O)(=O)N1CCN(Cc2cc3nc(-c4cccc5[nH]ncc45)nc(N4CCOCC4)c3s2)CC1 please.
result: Not met

query: Same question for S=c1nc[nH]c2nc[nH]c12 please.
result: Met

query: Same question for O=C(O)c1ccc2cc(-c3ccc(O)c(C45CC6CC(CC(C6)C4)C5)c3)ccc2c1 please.
result: Met

query: Same question for O=C1c2c(O)ccc(O)c2C(=O)c2c(NCCNCCO)ccc(NCCNCCO)c21 please.
result: Met

###

test system: HEK293; assay: IC50 for inhibition of ZIKV NS1 production
Please go through the items and note down their IC50.
Answers are plain numbers, in µM.

In the examples that follow, each entry is paired with its recorded IC50.
| Molecule | Measurement label | Value reported |
| --- | --- | --- |
| CO/C1=C\C(C)=C\[C@@H](C)[C@@H](O)[C@@H](C)C/C(C)=C/C=C/[C@H](OC)[C@@H]([C@@H](C)[C@@H](O)[C@H](C)[C@@]2(O)C[C@@H](O)[C@H](C)[C@@H](C(C)C)O2)OC1=O | IC50 | 5.3 |
| O=C1CCc2ccc(OCCCCN3CCN(c4cccc(Cl)c4Cl)CC3)cc2N1 | IC50 | 25 |
| CCN1/C(=C/C=C/c2sc3ccccc3[n+]2CC)Sc2ccccc21 | IC50 | 50 |

Give IC50 for all molecules that follow.
1. CS[C@H]1SC[C@H]2C(=O)N(C)[C@@H](C(C)C)C(=O)OC[C@@H](NC(=O)c3cnc4ccccc4n3)C(=O)N[C@@H](C)C(=O)N(C)[C@@H]1C(=O)N(C)[C@@H](C(C)C)C(=O)OC[C@@H](NC(=O)c1cnc3ccccc3n1)C(=O)N[C@@H](C)C(=O)N2C
2. CN(C)c1ccc(C(=C2C=CC(=[N+](C)C)C=C2)c2ccccc2)cc1
3. Cc1ncc(-c2ccnc(Nc3ccc(S(C)(=O)=O)cc3)n2)n1C(C)C
4. CC(=O)OC[C@H]1O[C@@H]([S-])[C@H](OC(C)=O)[C@@H](OC(C)=O)[C@@H]1OC(C)=O.CCP(CC)CC.[Au+]

result:
1. 0.017
2. 1.6
3. 9.2
4. 3.5

###

tested on: HEK293; experiment: maximal inhibition of ZIKV NS1 production (% inhibition); higher = stronger antiviral effect
Measurement label: maximal inhibition

In the examples that follow, each entry is paired with its recorded maximal inhibition.
| Compound smiles | maximal inhibition |
| --- | --- |
| COc1cccc2nc(-c3cccs3)nc(NN3C(=O)C=C(C)C3=O)c12 | 103 |
| CC(=O)O[C@@]12CO[C@@H]1C[C@H](O)[C@@]1(C)C(=O)[C@H](O)C3=C(C)[C@@H](OC(=O)[C@H](O)[C@@H](NC(=O)OC(C)(C)C)c4ccccc4)C[C@@](O)([C@@H](OC(=O)c4ccccc4)[C@H]21)C3(C)C | 66 |
| CCC[C@@H](C=O)NC(=O)[C@H](CC(C)C)NC(=O)[C@H](CC(C)C)NC(=O)OCc1ccccc1 | 94 |

Now, please, on to the next compound.
query: Write down the reported maximal inhibition of CO[C@H]1[C@H](O)[C@@H](O)[C@H](n2c3c(Cl)cccc3c3c4c(c5c6cccc(Cl)c6[nH]c5c32)C(=O)NC4=O)O[C@@H]1CO , test system: HEK293.
result: 90
